# MEASURED ON: T1, dimeric hIL-4R-hFc (human, UniProt P24394 26-232)
# T1 construct: also called hIL-4R-Fc; not shown: human Fc (hFc)
# T1 sequence: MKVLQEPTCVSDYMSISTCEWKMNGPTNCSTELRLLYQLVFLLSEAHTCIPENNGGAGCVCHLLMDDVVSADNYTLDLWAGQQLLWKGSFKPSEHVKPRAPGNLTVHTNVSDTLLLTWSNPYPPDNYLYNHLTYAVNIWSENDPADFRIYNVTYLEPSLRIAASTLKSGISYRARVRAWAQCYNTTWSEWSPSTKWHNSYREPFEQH
# PROTOCOL DESCRIPTION: SPR (BIAcore 2000); antibody captured, dimeric hIL-4R-hFc injected
The entries below come with measured Kd values attached.
Numeric answer only, unit nM assumed.

Worked examples follow.
BINDER: VAK8G11-13 (antibody, V domains shown, Apparently tested with mouse constant region (anti-mouse IgG capture/detection)) VH: QVRLVESGGGVVQPGGSLRLSCAASGFIFRSYGMHWVRQAPGRGLEWVAVISYDGSKTFYVDSVKVRFTISRDNSKNTLYLEMNSLRVDDTAVYFCVKEGRSGSWFDPWGQGTLVAVSS VL: DIHMTQSPSSLSASVGDRVTITCRASQAINNFLAWFQQKPGKTPKSLIFATSSLQSGVPSRFSGSGSGTDFTLTISSLQPEDFATYYCQQYNSHPWTFGQGTKVEIK
READOUT: Kd
UNITS TEXT: nM
RECORDED NUMBER: 0.002
--
BINDER: VAK10G6-7 (antibody, V domains shown, Apparently tested with mouse constant region (anti-mouse IgG capture/detection)) VH: QVQLVESGGGVVQPGRSLRLSCTASGFTFSSFGMHWVRQAPGRGLEWVAVISYDGSKKYYADSVKVRFTISRDNSKNTLYLQMNSLRVDDTAVYFCAKEGRTGNWFDPWGQGTLVAVSS VL: DIQMTQSPSSLSASVGDRVTITCRASQAINNYLAWFQQKPGKTPKSLIFATSSLQSGVPSRFSGTGSGTDFTLTISSLQPEDFATYYCQQYNSHPWTFGQGTKVEIR
READOUT: Kd
UNITS TEXT: nM
RECORDED NUMBER: 0.011

Here's the next entry for you.
Ask: For the binder shown here, VAK9C6-11 (antibody, V domains shown, Apparently tested with mouse constant region (anti-mouse IgG capture/detection)) VH: QVQLVESGGGVVQPGRSLRLSCAASGFTFSSYGMHWVRQAPGKGLEWVTVISYDGSIKYYVDSVKGRFTISRDNSKNTLFLQMNSLRVEDTAVYYCAKEGRKYGMDVWGQGTTVTVSS VL: DIQMTQSPSTLSASVGDRVTITCRASQIISSLLVWYQQKPGKAPKLLIYKASSLESGVPSRFSGSGSGTEFTLTISSLQPDDFATYYCQQYHSYMYTFGQGTKLEIK , give the reported Kd.
Reply: 0.068

The measured values listed here are drawn from patent US20080160035A1.
